- Tested on: A549 cells
- assay: MTT cytotoxicity assay, A549
- Type: cell-based
- statedConditions: Homo sapiens, 48 h, read-out: IC50 (toxicity) A549
measurementName: IC50 (µM)
One number for each entry, in µM.

// worked examples, IC50 included
querySmiles: CCOC(=O)c1c(C)n(C)c2ccc(OC[C@H](O)CN[C@H](CC)CO)cc12
testedSystem: A549 cells
IC50 (µM): 62.6
--
querySmiles: Nc1nc(SCC(=O)Nc2cccc([N+](=O)[O-])c2)sc1C(=O)Nc1nccs1
testedSystem: A549 cells
IC50 (µM): 48.8
--
querySmiles: Cc1ccc(C(C)C)c(OC[C@H](O)CNCc2ccccc2)c1
testedSystem: A549 cells
IC50 (µM): 36.5
--
querySmiles: CN1C(=O)[C@](O)(CC(=O)c2cc(O)ccc2O)c2ccccc21
testedSystem: A549 cells
IC50 (µM): 54.6
--
querySmiles: O=C(CSc1nc2c(sc3ccccc32)c(=O)n1Cc1cccnc1)Nc1ccc(O)c(O)c1
testedSystem: A549 cells
IC50 (µM): 27.1
--
querySmiles: O=C(N/N=C/c1ccc(Cl)c(Cl)c1)c1cc(O)c(O)c(O)c1
testedSystem: A549 cells
IC50 (µM): 31
--
querySmiles: CC(=O)c1c(C)[nH]c2ccc(OC[C@@H](O)CNCCc3ccccc3)cc12
testedSystem: A549 cells
IC50 (µM): 50.4

# next molecule below
Which IC50 value belongs to O[C@H](CNCc1ccccc1)COc1cccc2ccccc12 ?
38.6
